- PROTOCOL_TEXT: solvent given as SMILES
- COND: in CCOCC
VALUE_TYPE: absorption maximum

RECORD_SMILES	VALUE_TYPE	DATA_VALUE
c1ccc(-c2nc(-c3ccc(-c4ccc(N(c5ccccc5)c5ccccc5)cc4)cn3)oc2-c2ccccc2)cc1	absorption maximum	348 nm
CCCCCCOc1ccc(N(c2ccc(OCCCCCC)cc2)c2ccc(-c3sc(-c4ccc(N(c5ccc(OCCCCCC)cc5)c5ccc(OCCCCCC)cc5)cc4)c4nc(-c5ccccc5)c(-c5ccccc5)nc34)cc2)cc1	absorption maximum	600 nm
Oc1ccccc1/N=C/c1ccccc1Oc1ccccc1	absorption maximum	363 nm
c1ccc(N2c3ccccc3Sc3cc(-c4cccc5nc6ccccc6cc45)ccc32)cc1	absorption maximum	407 nm
Oc1ccc(/N=C/c2ccccc2Oc2ccccc2)cc1	absorption maximum	345 nm
